Values from the RNAGym collection of RNA variant scans (doi:10.1101/gr.219683.116)

Consider the following variants; for each one, report its exon inclusion enrichment index.
B1: mRNA-splicing (parent)
chain: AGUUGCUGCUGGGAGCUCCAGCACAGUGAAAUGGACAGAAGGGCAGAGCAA

Variants of: B1
Assay notes: exon inclusion enrichment index; higher = more inclusion; WT1 exon 5 minigene, HEK293
Numbers only.

Solved entries (count: 2):
Fill blank: measured exon inclusion enrichment index of the variant G5C C6U G8C C9U U10C U27G G28U is ____. 0.00454

Fill blank: measured exon inclusion enrichment index of the variant C6A U7C C9A U10G G11C is ____. 2.72

The following variants each have a reported value; give each one's exon inclusion enrichment index.
1. A39C A40U
2. C6A U7C C9A U10C A37G G38U
3. G5A C6G U7G C9A A39U A40C
4. C6A U7A C9A U10A A47C G48C
5. G5A U7C G8A U10C G42U G43A
6. C6A U7C C9A U10C C16G U17G
7. G5A C6U U7A G8U C9A A29C

1: 0.0469; 2: 1.68; 3: 0.0022; 4: 0.797; 5: 3.16; 6: 0.621; 7: 0.0477

The following variants each have a reported value; give each one's exon inclusion enrichment index.
1. G5A U7C G8A U10C A35C C36U
2. G5A U7C G8A U10C U32C G33U
3. G5A U7C G8A U10C G26U U27G

[0.244, 1.75, 3.47]
